These measurements were taken from paper PMC6522524.

- METHOD NOTES: in vitro
- Format: cell-based, human
- TEST CONTEXT: human, Cell viability(%), individual samples
ENDPOINT: viability at 2 µM (%)
Could you give me the number in %? Just the number is fine.

Task: Data request, read-out viability at 2 µM, for Cc1cc(C2CCCCC2)n(O)c(=O)c1
Output: 95.4

###

- METHOD NOTES: in vitro
- Type: cell-based, human
- TEST CONTEXT: human, Cell viability(%), individual samples
ENDPOINT: viability at 0.5 µM

Task: Data request, read-out viability at 0.5 µM, for Cc1cc(C2CCCCC2)n(O)c(=O)c1
Output: 98.2%
